Tested on: P94_40
Experiment: qHTS profiling for inhibitors of Plasmodium falciparum proliferation (AID 504749); note: nearly all actives have a fitted effect of over 60% in size
Settings: P. falciparum in erythrocytes, SYBR Green DNA, 72 h; series mostly up to 28.7 µM
Results filed as inconclusive are left out. The source made the active and inactive calls. Calls come from the whole dose curve; as a rule, active = well fitted inhibition curve with a large enough effect; inconclusive = small, poorly fitted or top-dose-only effect; inactive = flat fitted curve, though single readings scatter.
Select the correct class. Options are 1 for active, 0 for inactive and nothing else.

Below, 2 compounds whose answers are already recorded.
compoundstructure=COc1ccc(-c2ccc3cc(C(=O)O)ccc3c2)cc1C12CC3CC(CC(C3)C1)C2 group=0
compoundstructure=CC(C)(Sc1cc(C(C)(C)C)c(O)c(C(C)(C)C)c1)Sc1cc(C(C)(C)C)c(O)c(C(C)(C)C)c1 group=0

Outcome? "COc1cc([C@@H]2c3cc4c(cc3[C@H](O)[C@H]3COC(=O)[C@H]23)OCO4)cc(OC)c1OC"
1

Outcome? "CCOC(=O)c1ccc(OC(=O)CCCCCN=C(N)N)cc1"
0

Outcome? "CN(C)c1ccc(C(=C2C=CC(=[N+](C)C)C=C2)c2ccc(N(C)C)cc2)cc1"
1

Outcome? "S=P(N1CC1)(N1CC1)N1CC1"
0

The origin of these recorded values is PubChem BioAssay (NCATS).
